# ASSAY_SYSTEM: Calcium/calmodulin-dependent protein kinase type II subunit delta (Homo sapiens)
# EXPERIMENTAL_PARAMETERS: at 10 µM
residual activity values by entry
PROPERTY_LABEL: residual activity (%)

molecule=Cn1cnc2cc3c(Nc4cccc(Br)c4)ncnc3cc21 endpoint_value=52
molecule=O=C1Nc2ccc(Br)cc2/C1=C\c1cc2c([nH]1)CCCC2 endpoint_value=20
molecule=Cc1cccc(-c2[nH]c(C(C)(C)C)nc2-c2ccc3c(c2)OCO3)n1 endpoint_value=99
molecule=CO[C@@H]1[C@H](N(C)C(=O)c2ccccc2)C[C@H]2O[C@]1(C)n1c3ccccc3c3c4c(c5c6ccccc6n2c5c31)C(=O)NC4 endpoint_value=1
molecule="O=C1Nc2ccccc2/C1=C1/Nc2ccccc2/C1=N\\OCCC(O)CO (stereo not given)" endpoint_value=1
